Reported half-life at 5 µM by item:
ASSAY EXPLANATION: Rabbit Cornea Homogenate Stability Assay (Rabbit Cornea Esterase Assay)
Assay type: in vitro ADME
SETUP CONDITIONS: New Zealand White, pH 7.5, Rabbit Cornea Homogenate 0.45 mg/ml total protein, 37° C., half-life of parent conjugate, read-out: T1/2 Esterase (min) (0.45 mg/ml Homogenate)
Reply numerically in min, unit not repeated.

Q) Item CC[C@H]1OC(=O)[C@H](C)[C@@H](O[C@H]2C[C@@](C)(OC)[C@@H](O)[C@H](C)O2)[C@H](C)[C@@H](O[C@@H]2O[C@H](C)C[C@H](N(C)C)[C@H]2OC(=O)CCOCCOCCOCCOCCO)[C@](C)(O)C[C@@H](C)CN(C)[C@H](C)[C@@H](O)[C@]1(C)O [Compound 5] has what recorded half-life at 5 µM?
A) 24

Now consider a different compound.
Q) GET /values?readout=half-life at 5 µM&item= CC[C@H]1OC(=O)[C@H](C)[C@@H](O[C@H]2C[C@@](C)(OC)[C@@H](O)[C@H](C)O2)[C@H](C)[C@@H](O[C@@H]2O[C@H](C)C[C@H](N(C)C)[C@H]2OC(=O)O[C@H](C)C(=O)OC)[C@](C)(O)C[C@@H](C)CN(C)[C@H](C)[C@@H](O)[C@]1(C)O [Compound 10]
A) 49

src = patent US11643429B2
